- System: wheat (Triticum aestivum)
- Protocol Description: Test A postemergence
- Type: in vivo
- Protocol Conditions: Triticum aestivum, post-emergence, 240 h, Postemergence, 500 g ai/ha; visual injury, 0 to 100 scale (0 no effect, 100 complete control), approx. 10 d; read-out: Plant response rating, Wheat
Reported Endpoint: plant injury at 500 g/ha (%)
One number for each entry, in %.

Working through the 4 compounds below one at a time, give plant injury at 500 g/ha for each.
1. CN1C[C@H](c2ccc3c(c2)CCO3)[C@@H](C(=O)Nc2ccc(F)c(F)c2F)C1=O [Compound 1323]
2. CSc1ccccc1NC(=O)[C@H]1C(=O)NC[C@@H]1c1ccc2c(c1)OCO2 [Compound 1257]
3. CC(C)c1cccc([C@H]2CN(C)C(=O)[C@@H]2C(=O)Nc2cccc(F)c2F)c1 [Compound 1388]
4. CS(=O)(=O)c1ccccc1NC(=O)[C@H]1C(=O)NC[C@@H]1c1ccc2c(c1)CCO2 [Compound 1320]

1. 70
2. 0
3. 60
4. 0
